Molecular target: MgCA (Malassezia globosa, UniProt A8Q1N3)
Construct: recombinant, purified; dimer in the homology model; Zn ligands C47, H103, C106
Sequence (A8Q1N3 1-241): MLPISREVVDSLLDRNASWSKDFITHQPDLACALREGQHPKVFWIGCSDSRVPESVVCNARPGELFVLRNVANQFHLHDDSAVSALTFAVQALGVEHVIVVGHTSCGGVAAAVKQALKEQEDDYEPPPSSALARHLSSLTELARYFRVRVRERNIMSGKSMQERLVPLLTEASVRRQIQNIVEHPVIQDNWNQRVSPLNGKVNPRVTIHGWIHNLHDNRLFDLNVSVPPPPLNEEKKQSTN
Test: stopped-flow CO2 hydration assay, Cheng-Prusoff
Property: pKi
Numbers only, as −log10 of the molar value.

CCCN(CCC)C(=O)S | 5.73
O=C(S)N1CCOCC1 | 5.12
O=C(S)N1CCN(c2cccc(Cl)c2)CC1 | 4.80
CC(C)CN(CC(C)C)C(=O)S | 5.06

Batch request: pKi per item, same order as input.
1. CN(Cc1ccccc1)C(=O)S
2. O=C(S)N1CCN(c2ccc(C(F)(F)F)cc2)CC1

Response:
1: 5.12; 2: 5.37
